Data origin: the supplement of paper PMC10567573

B1: CAMK2A (parent)
chain: CIQQILEAVLHCHQMGVVHRDLKP

# Variants of: B1
# testDetails: protein stability index of a GFP-peptide fusion (GPS, HEK-293T) (PSI 1-6); higher = more stable;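 also: lentivirally expressed fusions sorted by FACS into six bins by GFP to DsRed ratio, PSI derived from sequencing read proportions per bin multiplied by bin number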
# conditionsUsed: c terminus: a fixed tail appended
# label = 1 (yes) if protein stability index >= 2 else 0 (no)

Input line: Assess whether reported protein stability index for CIQQHLEAVLHCHQMGVVHRDLKP [I5H] sits at 2 or higher.
Output line: 1 (yes)

Next:
Input line: Assess whether reported protein stability index for CIQQILEAVLHCHQMGVVHRCLKP [D21C] sits at 2 or higher.
Output line: 1 (yes)

Input line: Assess whether reported protein stability index for CIQQILEAVLHCHQYGVVHRDLKP [M15Y] sits at 2 or higher.
Output line: 1 (yes)

Input line: Assess whether reported protein stability index for CPQQILEAVLHCHQMGVVHRDLKP [I2P] sits at 2 or higher.
Output line: 1 (yes)

Input line: Assess whether reported protein stability index for CIQQILEVVLHCHQMGVVHRDLKP [A8V] sits at 2 or higher.
Output line: 1 (yes)

Input line: Assess whether reported protein stability index for CIQQILEAVLHCHQMGVVHRDRKP [L22R] sits at 2 or higher.
Output line: 0 (no)

Input line: Assess whether reported protein stability index for CIQQILEAVLHCHQMGLVHRDLKP [V17L] sits at 2 or higher.
Output line: 1 (yes)

Input line: Assess whether reported protein stability index for CIQQILEADLHCHQMGVVHRDLKP [V9D] sits at 2 or higher.
Output line: 0 (no)
